Quick list: CC50 per entry.
test system: HeLa; assay: SRB colorimetric assay of cell growth and viability, HeLa; format: cell-based, human; conditions: 48 hours exposure; read-out: LC50 HELA
Where a SMILES comes first, the peptide text is derived from it. Bridges are numbered along the chain shown (N, C = ends). [ ]: non-standard residue; d: D form. The star is where a group is joined. d(aIle) = CC[C@H](C)[C@@H](N)C(=O)O; d(aThr) = C[C@@H](O)[C@@H](N)C(=O)O; Hexanoyl(5-Me) = CC(C)CCCC(=O)*; Orn = NCCC[C@H](N)C(=O)O; Dhb = C/C=C(\N)C(=O)O
Quick reminder: number only, in µM, skip the unit.

Here are 3 molecules together with their reported answers.
{"Molecule": "C/C=C1\\NC(=O)[C@H](Cc2ccccc2)NC(=O)[C@@H](C(C)C)NC(=O)[C@@H]([C@@H](C)CC)NC(=O)[C@H](NC(=O)[C@H](NC(=O)[C@H](CCCN)NC(=O)[C@H]2CCCN2C(=O)[C@H](NC(=O)[C@@H](NC(=O)[C@@H](NC(=O)[C@H](NC(=O)CC[C@H](C)CC)C(C)C)[C@@H](C)O)C(C)C)C(C)C)[C@@H](C)CC)[C@@H](C)OC(=O)[C@H](C(C)C)NC1=O [Compound 16, [(4R)-MeHex^14]-KF]", "Target Of Assay": "HeLa", "CC50 / µM": 3.55}
{"Molecule": "C/C=C1\\NC(=O)[C@H](Cc2ccccc2)NC(=O)[C@@H](C(C)C)NC(=O)[C@@H]([C@@H](C)CC)NC(=O)[C@H](NC(=O)[C@H](NC(=O)[C@H](CCCN)NC(=O)[C@H]2CCCN2C(=O)[C@H](NC(=O)[C@H](C)NC(=O)[C@@H](NC(=O)[C@H](NC(=O)CCCC(C)C)C(C)C)[C@@H](C)O)C(C)C)[C@@H](C)CC)[C@@H](C)OC(=O)[C@H](C(C)C)NC1=O [Compound 44, [Ala^11]-KF] ({Hexanoyl(5-Me)}-[dV]TA[dV][dP][Orn][d(aIle)][d(aThr)][d(aIle)][dV]F[Dhb]V; ester 8-C)", "Target Of Assay": "HeLa", "CC50 / µM": 6.9}
{"Molecule": "C/C=C1\\NC(=O)[C@H](Cc2ccccc2)NC(=O)[C@@H](C(C)C)NC(=O)[C@@H](C(C)C)NC(=O)[C@H](NC(=O)[C@H](NC(=O)[C@H](CCCN)NC(=O)[C@H]2CCCN2C(=O)[C@H](NC(=O)[C@@H](NC(=O)[C@@H](NC(=O)[C@H](NC(=O)CCCC(C)C)C(C)C)[C@@H](C)O)C(C)C)C(C)C)C(C)C)[C@@H](C)OC(=O)[C@H](C(C)C)NC1=O [Compound 12, [D-Val^5, D-Val^7]-KF] ({Hexanoyl(5-Me)}-[dV]TV[dV][dP][Orn][dV][d(aThr)][dV][dV]F[Dhb]V; ester 8-C)", "Target Of Assay": "HeLa", "CC50 / µM": 5.07}

Request: # CC50 lookup, item C/C=C1\NC(=O)[C@H](Cc2ccccc2)NC(=O)[C@@H](C(C)C)NC(=O)[C@@H]([C@@H](C)CC)NC(=O)[C@H](NC(=O)[C@H](NC(=O)[C@H](CCCN)NC(=O)[C@H]2CCCN2C(=O)[C@H](NC(=O)[C@@H](NC(=O)[C@H](C)NC(=O)CCCC(C)C)C(C)C)C(C)C)[C@@H](C)CC)[C@@H](C)OC(=O)[C@H](C(C)C)NC1=O [Compound 52, [Ala^12, noD-Val^13]-KF] ({Hexanoyl(5-Me)}-AV[dV][dP][Orn][d(aIle)][d(aThr)][d(aIle)][dV]F[Dhb]V; ester 7-C)
Response: 7.41

Request: # CC50 lookup, item C/C=C1\NC(=O)[C@H](Cc2ccccc2)NC(=O)[C@@H](C(C)C)NC(=O)[C@@H]([C@@H](C)CC)NC(=O)[C@H](NC(=O)[C@H](NC(=O)[C@H](CCCN)NC(=O)[C@H]2CCCN2C(=O)[C@H](NC(=O)[C@@H](NC(=O)[C@@H](NC(=O)[C@H](NC(=O)CCCC(C)C)[C@H](C)O)[C@@H](C)O)C(C)C)C(C)C)[C@@H](C)CC)[C@@H](C)OC(=O)[C@H](C(C)C)NC1=O [Compound 41, [D-Thr^13]-KF]
Response: 3.94

---

test system: HT-29; assay: SRB colorimetric assay of cell growth and viability, HT-29; format: cell-based, human; conditions: 48 hours exposure
Where a SMILES comes first, the peptide text is derived from it. Bridges are numbered along the chain shown (N, C = ends). [ ]: non-standard residue; d: D form. The star is where a group is joined. d(aThr) = C[C@@H](O)[C@@H](N)C(=O)O; Hexanoyl(5-Me) = CC(C)CCCC(=O)*; dCha = N[C@H](CC1CCCCC1)C(=O)O; Orn = NCCC[C@H](N)C(=O)O; Dhb = C/C=C(\N)C(=O)O
Recorded Metric: TGI HT-29 (Molar)
Quick reminder: number only, in Molar, skip the unit.

Request: # TGI HT-29 lookup, item C/C=C1\NC(=O)[C@H](Cc2ccccc2)NC(=O)[C@@H](CC2CCCCC2)NC(=O)[C@@H](CC2CCCCC2)NC(=O)[C@H](NC(=O)[C@@H](CC2CCCCC2)NC(=O)[C@H](CCCN)NC(=O)[C@H]2CCCN2C(=O)[C@H](NC(=O)[C@@H](NC(=O)[C@@H](NC(=O)[C@H](NC(=O)CCCC(C)C)C(C)C)[C@@H](C)O)C(C)C)C(C)C)[C@@H](C)OC(=O)[C@H](C(C)C)NC1=O [Compound 11, [D-Cha^4, D-Cha^5, D-Cha^7]-KF] ({Hexanoyl(5-Me)}-[dV]TV[dV][dP][Orn][dCha][d(aThr)][dCha][dCha]F[Dhb]V; ester 8-C)
Response: 1.91E−07

---

Quick list: TGI SK-BR-3 per entry.
Tested on: SK-BR-3
Experiment: SRB colorimetric assay of cell growth and viability, SK-BR-3
Format: cell-based, human
Conditions: 48 hours exposure
Method: The finality of this assay is to interrupt the growth of a “in vitro” tumor cell culture by means a continued exhibition of the cells to the sample to be testing. […] Cells are seeded in 96 well microtiter plates, at 5×10^3 cells per well in aliquots of 195 μL medium, and they are allowed to attach to the plate surface by growing in drug free medium for 18 hours. […] Optical densities are read on a automated spectrophotometric plate reader at a single wavelength of 490 nm. […]
Where a SMILES comes first, the peptide text is derived from it. Bridges are numbered along the chain shown (N, C = ends). [ ]: non-standard residue; d: D form. The star is where a group is joined. d(aIle) = CC[C@H](C)[C@@H](N)C(=O)O; d(aThr) = C[C@@H](O)[C@@H](N)C(=O)O; Hexanoyl(5-Me) = CC(C)CCCC(=O)*; Orn = NCCC[C@H](N)C(=O)O; Dhb = C/C=C(\N)C(=O)O
Quick reminder: number only, in Molar, skip the unit.

Here are 5 compounds together with their reported answers.
{"Compound": "C/C=C1\\NC(=O)[C@H](Cc2ccccc2)NC(=O)[C@@H](C(C)C)NC(=O)[C@@H]([C@@H](C)CC)NC(=O)[C@H](NC(=O)[C@H](NC(=O)[C@H](CCCN)NC(=O)[C@H]2CCCN2C(=O)[C@H](NC(=O)[C@@H](NC(=O)[C@@H](NC(=O)[C@H](NC(=O)CCCC(C)C)C(C)C)[C@@H](C)O)[C@@H](C)O)C(C)C)[C@@H](C)CC)[C@@H](C)OC(=O)[C@H](C(C)C)NC1=O [Compound 50, [Thr^11]-KF] ({Hexanoyl(5-Me)}-[dV]TT[dV][dP][Orn][d(aIle)][d(aThr)][d(aIle)][dV]F[Dhb]V; ester 8-C)", "TGI SK-BR-3 (Molar)": "2.58E−06"}
{"Compound": "C/C=C1\\NC(=O)[C@H](Cc2ccccc2)NC(=O)[C@@H](C(C)C)NC(=O)[C@@H]([C@@H](C)CC)NC(=O)[C@H](NC(=O)[C@H](NC(=O)[C@H](CCCN)NC(=O)[C@H]2CCCN2C(=O)[C@H](NC(=O)[C@@H](NC(=O)[C@H](CCC(N)=O)NC(=O)CCCC(C)C)C(C)C)C(C)C)[C@@H](C)CC)[C@@H](C)OC(=O)[C@H](C(C)C)NC1=O [Compound 58, [Gln^12, noD-Val^13]-KF] ({Hexanoyl(5-Me)}-QV[dV][dP][Orn][d(aIle)][d(aThr)][d(aIle)][dV]F[Dhb]V; ester 7-C)", "TGI SK-BR-3 (Molar)": "7.11E−06"}
{"Compound": "C/C=C1\\NC(=O)[C@H](Cc2ccccc2)NC(=O)[C@@H](C(C)C)NC(=O)[C@@H]([C@@H](C)CC)NC(=O)[C@H](NC(=O)[C@H](NC(=O)[C@H](CCCN)NC(=O)[C@H]2CCCN2C(=O)[C@H](NC(=O)[C@H](CC(C)C)NC(=O)[C@@H](NC(=O)[C@H](NC(=O)CCCC(C)C)C(C)C)[C@@H](C)O)C(C)C)[C@@H](C)CC)[C@@H](C)OC(=O)[C@H](C(C)C)NC1=O [Compound 45, [Leu^11]-KF] ({Hexanoyl(5-Me)}-[dV]TL[dV][dP][Orn][d(aIle)][d(aThr)][d(aIle)][dV]F[Dhb]V; ester 8-C)", "TGI SK-BR-3 (Molar)": "4.10E−07"}
{"Compound": "C/C=C1\\NC(=O)[C@H](Cc2ccccc2)NC(=O)[C@@H](C(C)C)NC(=O)[C@@H]([C@@H](C)CC)NC(=O)[C@H](NC(=O)[C@H](NC(=O)[C@H](CCCN)NC(=O)[C@H]2CCCN2C(=O)[C@H](NC(=O)[C@@H](NC(=O)[C@@H](NC(=O)[C@H](NC(=O)Cc2cc(F)cc(F)c2)C(C)C)[C@@H](C)O)C(C)C)C(C)C)[C@@H](C)CC)[C@@H](C)OC(=O)[C@H](C(C)C)NC1=O [Compound 22, [3,5-dFPhAc^14]-KF]", "TGI SK-BR-3 (Molar)": "1.45E−06"}
{"Compound": "C/C=C1\\NC(=O)[C@H](Cc2ccccc2)NC(=O)[C@@H](C(C)C)NC(=O)[C@@H](C(C)CC)NC(=O)[C@H](NC(=O)[C@H](NC(=O)[C@H](CCCN)NC(=O)[C@H]2CCCN2C(=O)[C@H](NC(=O)[C@@H](NC(=O)[C@@H](NC(=O)[C@H](NC(=O)CCC(C)CC)C(C)C)C(C)O)C(C)C)C(C)C)C(C)CC)C(C)OC(=O)[C@H](C(C)C)NC1=O (stereo partly drawn)", "TGI SK-BR-3 (Molar)": "9.27E−08"}

Consider the additional compound presented here.
Request: # TGI SK-BR-3 lookup, item C/C=C1\NC(=O)[C@H](Cc2ccccc2)NC(=O)[C@@H](C(C)C)NC(=O)[C@@H]([C@@H](C)CC)NC(=O)[C@H](NC(=O)[C@H](NC(=O)[C@H](CCCN)NC(=O)[C@H]2CCCN2C(=O)[C@H](NC(=O)[C@H](CCC(=O)O)NC(=O)[C@@H](NC(=O)[C@H](NC(=O)CCCC(C)C)C(C)C)[C@@H](C)O)C(C)C)[C@@H](C)CC)[C@@H](C)OC(=O)[C@H](C(C)C)NC1=O [Compound 51, [Glu^11]-KF] ({Hexanoyl(5-Me)}-[dV]TE[dV][dP][Orn][d(aIle)][d(aThr)][d(aIle)][dV]F[Dhb]V; ester 8-C)
Response: 6.63E−06
